# targetDesc: CD28 (Homo sapiens, UniProt P10747)
# experimentNotes: Jurkat/IL2 + CHO/OKT3 +/- PD-L1 reporter assay: PD-L1-dependent CD28 costimulation
# Format: cell-based
# Parameters: host or cells: Jurkat cells expressing an IL-2-luciferase reporter
# measurementConditions: CHO/OKT3 aAPC, no PD-L1; […]; luciferase signal
measuredQuantity: PD-L1-Dependent CD28 Costimulation, No PD-L1, […]

A71D/L72V/E95K: variant CD80 IgV-Fc, IgV SEQ ID NO:192 (protein) VIHVTKEVKEVATLSCGHNVSVEELAQTRIYWQKEKKMVLTMMSGDMNIWPEYKNRTIFDITNNLSIVILDVRPSDEGTYECVVLKYEKDAFKRKHLAEVTLSVKAD
466
E35D/D46V/L85Q: variant CD80 IgV-Fc, IgV SEQ ID NO:203 (protein) VIHVTKEVKEVATLSCGHNVSVEELAQTRIYWQKDKKMVLTMMSGVMNIWPEYKNRTIFDITNNLSIVILALRPSDEGTYECVVQKYEKDAFKREHLAEVTLSVKAD
511
E35D/M47I/L70M: variant CD80 IgV-Fc, IgV SEQ ID NO:199 (SEQ ID NO:125 in b995) (protein) VIHVTKEVKEVATLSCGHNVSVEELAQTRIYWQKDKKMVLTMMSGDINIWPEYKNRTIFDITNNLSIVIMALRPSDEGTYECVVLKYEKDAFKREHLAEVTLSVKAD
549

Here is another molecule to look at.
Lookup: Fill in the blank: the reported PD-L1-Dependent CD28 Costimulation, No PD-L1, […] of E35D/M47I: variant CD80 IgV-Fc, IgV SEQ ID NO:177 (protein) VIHVTKEVKEVATLSCGHNVSVEELAQTRIYWQKDKKMVLTMMSGDINIWPEYKNRTIFDITNNLSIVILALRPSDEGTYECVVLKYEKDAFKREHLAEVTLSVKAD is ____.
Found: 637
